System: CDKL5
Conditions: concentration: 1 μM, replicates: in singlicate; n = 1;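 also: KINOMEscan kinase panel screen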
Give %Inh for every item shown.
Give the value, in units of %, as a plain number.

Q. Short answer please: %Inh, CDKL5, entry COc1cc2nccc(Nc3ccc(OCc4ccc(NC(C)=O)cc4)cc3)c2cc1OC.Cl
A. 0

Q. Quick check: %Inh on CDKL5, item Nc1ncnc2c1ncn2-c1cccc2ccccc12 ?
A. 3

Q. Write down the reported %Inh of OCCCNc1nccc(-c2c(-c3cccc(C(F)(F)F)c3)nn3cc(C(F)(F)F)ccc23)n1 , test system: CDKL5.
A. 11

Q. Value wanted: %Inh (CDKL5) of entry O=C1NC(=O)C(c2ccccc2)=C1Nc1cccc(O)c1
A. 0

Q. Reported %Inh for CDKL5, given Cc1ccc(-c2ccc3c(ccc4sc5c(c43)NC[C@@H](C)N=C5N(C)C)n2)cn1 ?
A. 0

Q. Missing value: %Inh, CDKL5, entry CCC(=O)c1c(-c2ccccc2)c2cc(Cl)ccc2c(=O)n1Cc1cc(C(=O)NC2CC2)n(C)n1 . Fill in?
A. 6

Q. Return %Inh measured with CDKL5 given this compound: Cl.c1ccc(Cn2cnc3cc(Nc4ncnc5ccccc45)ccc32)cc1
A. 0

Q. State its %Inh on CDKL5: COc1cccc(C2=C(Nc3cccc(C(=O)O)c3)C(=O)NC2=O)c1
A. 0

Q. Param readout= %Inh; system= CDKL5; entry= CCC(=O)c1c(-c2ccccc2)c2cc(Cl)ccc2c(=O)n1Cc1ccc(C(=O)O)cc1 ; returns value.
A. 0

====

Tested on: TLK2
Conditions: concentration: 1 μM, replicates: in singlicate; n = 1
PROPERTY_MEASURED: %Inh (%)
Answer in %, number only, no unit symbol.

Q. Reported %Inh, compound CCC(=O)c1c(-c2ccccc2)c2cc(Cl)ccc2c(=O)n1Cc1cc(S(C)(=O)=O)n(CC(F)F)n1 : ____
A. 0

Q. Find the recorded %Inh belonging to C[C@@H]1CC[C@H](C(=O)NC2CCCCC2)CN1c1cc(-c2ccc3c(N)n[nH]c3c2)nc(N)n1 and report it.
A. 0

Q. I am curious: what %Inh value has been reported for CCC(=O)c1c(-c2ccccc2)c2cc(Cl)ccc2c(=O)n1Cc1cc(S(C)(=O)=O)n(CCC(C)(C)O)n1 ?
A. 0

====

Please respond with reported %Inh for every item in the list.
Tested on: CDC2L2
Conditions: concentration: 1 μM, replicates: in singlicate; n = 1
The figure you give is taken to be in %; do not add the unit.

Q. May I ask what %Inh has been recorded for CCC(=O)c1c(-c2ccccc2)c2cc(Cl)ccc2c(=O)n1Cc1cc(S(C)(=O)=O)n(CCC(C)(C)O)n1 ?
A. 13

Q. Recorded %Inh for Cl.NS(=O)(=O)c1cccc(Nc2cc(-c3ccc(F)cc3)n[nH]2)c1 [GW824645] , please?
A. 0

Q. Reported %Inh for Cc1cc(Nc2nc(-c3cccc(C)n3)nc3ccccc23)ccn1 [GW872411] : what is it?
A. 0

Q. Which %Inh reading was recorded for the molecule CCc1nc(-c2cccc(C)c2)c(-c2ccncc2)s1 ?
A. 3

Q. Requested field: %Inh. Item: CCCC(=O)Nc1n[nH]c2ncc(-c3cccc4ccccc34)cc12 [SB-642057]
A. 1

Q. For the molecule O=C(Nc1n[nH]c2nc(-c3ccccc3)c(Cl)cc12)C1CC1 [SB-734909] , what %Inh is on record?
A. 18

Q. Could you tell me which %Inh is on file for CCC(=O)c1c(-c2ccccc2)c2cc(Cl)ccc2c(=O)n1Cc1cc(S(C)(=O)=O)n(CC(N)=O)n1 ?
A. 6

Q. Can you share its %Inh? I mean this molecule: CN1C(=O)C(Nc2cc(Cl)c(O)c(Cl)c2)=C(c2ccc(Cl)cc2)C1=O [SB-404321]
A. 0

Q. Looking for the measured %Inh of Cc1cccc(-c2cc(-c3c[nH]nc3-c3ccccn3)ccn2)c1 [GW679395] , can you help?
A. 0

Q. Any idea what %Inh was measured for O=C(Nc1n[nH]c2cc(-c3ccccc3F)ccc12)C1CC1 [SB-733371] ?
A. 0

Q. Record request: %Inh value, item O=c1cc(N2CCOCC2)nc2n(Cc3ccc(F)c(Cl)c3)ccn12 [GSK2297099]
A. 28

Q. Look up %Inh for this molecule: OCCCNc1nccc(-c2c(-c3cccc(C(F)(F)F)c3)nn3cc(C(F)(F)F)ccc23)n1 [GW630813]
A. 9

Q. Entry COc1cc2nccc(Nc3ccc(OCc4ccc(NC(C)=O)cc4)cc3)c2cc1OC.Cl [GW440135] has what %Inh?
A. 0

Q. Could you share which %Inh value was measured for Nc1ncnc2c1ncn2-c1cccc(F)c1 [SKF-97560] ?
A. 15

Q. // %Inh lookup, key: COc1cc2ncn(-c3cc(OCCCc4ccccc4)c(C(N)=O)s3)c2cc1OC [GSK205189]
A. 3

Q. // lookup %Inh for CCC(=O)c1c(-c2ccccc2)c2cc(Cl)ccc2c(=O)n1Cc1cc(C(=O)NC2CC2)n(C)n1
A. 0

Q. Using the record for Fc1cccc(CSc2nnc(-c3ccc4c(c3)CCO4)o2)c1 , report its %Inh.
A. 0

Q. Bench note: what %Inh did Nc1n[nH]c2nnc(-c3ccccc3)c(-c3ccccc3)c12 [GW554060] show?
A. 0

Q. Quick one: %Inh for CCCNC(=O)Nc1ccc(Oc2ncnc3ccn(C)c23)cc1 ?
A. 0

====

System: EPHB2
Details: concentration: 1 μM, replicates: in singlicate; n = 1
Label Satisfied when %Inh is at or above 9%; otherwise label Not satisfied.

Q. Assess whether reported %Inh for CCS(=O)(=O)c1ccc(OC)c(Nc2ncc(-c3ccc(F)cc3)o2)c1.Cl [GW591947] sits at 9% or higher.
A. Satisfied

Q. Please indicate if the recorded %Inh for COc1ccc(Nc2nccc(N3CCC(NS(=O)(=O)c4ccc(NC(C)=O)cc4)C3)n2)cc1 (stereo not drawn) [GSK1379729] meets or exceeds 9%.
A. Not satisfied

Q. Check this molecule for %Inh at or above 9%: Cn1c(=O)c(F)c(Nc2ccc(I)cc2F)c2c(=O)n(OC[C@H](O)CO)cnc21
A. Satisfied

Q. Item CCn1c(-c2nonc2N)nc2ccccc21 [SB-693162/GW549034] with %Inh of 9% or above?
A. Not satisfied

Q. Quick check: does COC(=O)c1c(-c2ccccc2)c2cc(Br)ccc2c(=O)n1Cc1ccc(S(C)(=O)=O)cc1 have %Inh greater than or equal to 9%?
A. Satisfied

Q. Hello, I need to know if Nc1n[nH]c2ncc(-c3ccccc3)cc12 [SB-517081] has measured %Inh not below 9%. Thanks!
A. Satisfied

Q. Could you please find out whether COc1ccc(-c2cc3c(C)nc(N)nc3n([C@H]3CC[C@H](O)CC3)c2=O)cn1 has %Inh that meets 9% or exceeds it?
A. Not satisfied

Q. Entry CCn1c(-c2ccoc2)nc2cnccc21 [SB-733887] : is its %Inh no less than 9%?
A. Not satisfied

====

Could you please report measured %Inh for the items listed next?
Tested on: ERBB4
Details: concentration: 1 μM, replicates: in singlicate; n = 1
Reply with the number, then its unit.

Q. Can you look up the measured %Inh of CCc1ccc(-c2ccc3c(c2)-c2nn(C)cc2S(=O)(=O)N3C)cc1 for me?
A. 0%

Q. # lookup: %Inh of Cl.NS(=O)(=O)c1cccc(Nc2cc(-c3ccc(F)cc3)n[nH]2)c1
A. 0%

Q. Which %Inh is reported for this compound? CCC(=O)c1c(-c2ccccc2)c2cc(Cl)ccc2c(=O)n1Cc1cc(C(=O)NC2CC2)n(C)n1
A. 0%

Q. Any idea what %Inh was measured for CCS(=O)c1ccc(-c2coc3ccc(-c4nnc(C)o4)cc23)cc1 (stereo not drawn) ?
A. 9%

Q. // returns reported %Inh for input Cc1cccc(-c2cc(-c3c[nH]nc3-c3ccccn3)ccn2)c1
A. 36%

Q. For CCC(=O)c1c(-c2ccccc2)c2cc(Cl)ccc2c(=O)n1Cc1cc(S(C)(=O)=O)n(CC(F)F)n1 , what is its reported %Inh?
A. 0%

Q. Entry OCCCNc1nccc(-c2c(-c3cccc(C(F)(F)F)c3)nn3cc(C(F)(F)F)ccc23)n1 has what %Inh?
A. 40%

Q. Requested read-out: %Inh. Entry: COc1ccc(Nc2nccc(N3CCC(NS(=O)(=O)c4ccc(NC(C)=O)cc4)C3)n2)cc1 (stereo not drawn)
A. 0%

Q. If you can, please state the reported %Inh value of CCC(=O)c1c(-c2ccccc2)c2cc(Cl)ccc2c(=O)n1Cc1ccc(C(=O)O)cc1 .
A. 0%

====

Tested on: WEE1
Conditions: concentration: 1 μM, replicates: in singlicate; n = 1
Hi there, I'd appreciate the recorded %Inh for every entry that follows.
The figure you give is taken to be in %; do not add the unit.

Q. Which %Inh is listed for COc1ccc(Nc2nccc(N3CCC(NS(=O)(=O)c4ccc(NC(C)=O)cc4)C3)n2)cc1 (centres unmarked) ?
A. 37

Q. Report %Inh for COc1cc(OC)cc(-c2cc3cnc(N)nc3nc2NC(=O)NC(C)(C)C)c1 please.
A. 0

Q. Please report the recorded %Inh for COc1ccc(-n2cnc3c(N)ncnc32)cc1 .
A. 0

Q. Query (molecule): CCn1c(-c2ccoc2)nc2cnccc21 ; field requested: %Inh
A. 4

Q. Looking for the measured %Inh of Nc1n[nH]c2nnc(-c3ccccc3)c(-c3ccccc3)c12 , can you help?
A. 44

Reference for the values: paper PMC5540273
